assay: Acute toxicity LD50; set-up: species or system rats; conditions: rat, in vivo, po; p.o. (rats)
property.measured: LD50

Q) // returns reported LD50 for input Cc1c(C)c2c(c(C)c1OP(=O)(O)OC1=C(O)[C@@H]([C@@H](O)CO)OC1=O)CCC(C)(CCCC(C)CCCC(C)CCCC(C)C)O2 (mixture of isomers)
A) ≥ 5000 mg/kg
